Tested on: NCI-H358
ASSAY_REMARKS: Cytotoxicity against human NCI-H358 cells up to 30 uM after 48 hrs by WST-1 assay
Type: cell-based
ASSAY_CONDITIONS: nci-h358, 48 h

INPUT_SMILES: CCCCC1=N/C(=C\c2ccc(Br)cc2)C(=O)N1Cc1ccc(-c2ccccc2C#N)cc1
Activity: Non-Toxic
--
INPUT_SMILES: CCCCC1=N/C(=C\c2cccc(Br)c2)C(=O)N1Cc1ccc(-c2ccccc2-c2nnn(C(c3ccccc3)(c3ccccc3)c3ccccc3)n2)cc1
Activity: Non-Toxic
--
INPUT_SMILES: CCCCC1=N/C(=C\c2ccc(Cl)cc2)C(=O)N1Cc1ccc(-c2ccccc2-c2nnn(C(c3ccccc3)(c3ccccc3)c3ccccc3)n2)cc1
Activity: Non-Toxic

----------
System: NIH3T3
ASSAY_REMARKS: Cytotoxicity against mouse NIH/3T3 cells up to 30 uM after 48 hrs by WST-1 assay
Type: cell-based
ASSAY_CONDITIONS: nih3t3, 48 h
OBSERVED_PROPERTY: Activity

INPUT_SMILES: CCCCC1=N/C(=C\c2cccc(Br)c2)C(=O)N1Cc1ccc(-c2ccccc2-c2nnn(C(c3ccccc3)(c3ccccc3)c3ccccc3)n2)cc1
RESULT: Non-Toxic

INPUT_SMILES: CCCCC(=O)N(Cc1ccc(-c2ccccc2-c2nnn[nH]2)cc1)[C@H](C(=O)O)C(C)C
RESULT: Non-Toxic

INPUT_SMILES: CCCCC1=N/C(=C\c2ccc(Br)cc2)C(=O)N1Cc1ccc(-c2ccccc2-c2nnn(C(c3ccccc3)(c3ccccc3)c3ccccc3)n2)cc1
RESULT: Non-Toxic

----------
Target sequence: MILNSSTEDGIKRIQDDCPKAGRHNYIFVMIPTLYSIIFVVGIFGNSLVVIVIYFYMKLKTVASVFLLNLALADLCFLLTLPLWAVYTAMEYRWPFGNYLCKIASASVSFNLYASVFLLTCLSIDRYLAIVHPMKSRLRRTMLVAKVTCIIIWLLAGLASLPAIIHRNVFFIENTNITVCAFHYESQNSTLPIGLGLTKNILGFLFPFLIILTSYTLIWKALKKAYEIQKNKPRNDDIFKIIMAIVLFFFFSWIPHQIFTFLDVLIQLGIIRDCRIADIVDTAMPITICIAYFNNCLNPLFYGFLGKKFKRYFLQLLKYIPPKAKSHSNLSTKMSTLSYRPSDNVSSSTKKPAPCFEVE

INPUT_SMILES: CCOc1nc2cccc(C(=O)O)c2n1Cc1ccc(-c2ccccc2-c2nnn[nH]2)cc1
Ki [nM]: 10.4
